This section lists IC50 readings for BTK (Homo sapiens (Human), UniProt Q06187).

>  <molecule>
C=CC(=O)N1CC[C@]2(C1)C[C@H](n1c(NC(=O)c3ccc(C)nc3)nc3ccccc31)C2

>  <IC50 / nM>
11.3

$$$$
>  <molecule>
C=CC(=O)N1CC[C@]2(C1)C[C@H](n1c(NC(=O)c3ccc(-c4cnco4)s3)nc3cc(N(C)C(=O)C4CCCCC4)ccc31)C2

>  <IC50 / nM>
1.15

$$$$
>  <molecule>
C=CC(=O)N1CC[C@]2(C1)C[C@H](n1c(NC(=O)c3cccnc3)nc3cc(CN[C@@H](C)C(C)(C)C)ccc31)C2

>  <IC50 / nM>
4.79

$$$$
>  <molecule>
C=CC(=O)N1CC[C@]2(C1)C[C@H](n1c(NC(=O)c3ccc(-c4ccnnc4)s3)nc3ccccc31)C2

>  <IC50 / nM>
3.31

$$$$
>  <molecule>
C=CC(=O)N1CC[C@]2(C1)C[C@H](n1c(NC(=O)c3ccc(-c4ccn(C)c(=O)c4)s3)nc3ccccc31)C2

>  <IC50 / nM>
43.5

$$$$
>  <molecule>
C=CC(=O)N1CC[C@]2(C1)C[C@H](n1c(NC(=O)c3ccc(C)s3)nc3ccccc31)C2

>  <IC50 / nM>
26.2

$$$$
>  <molecule>
C=CC(=O)N1CC[C@]2(C1)C[C@H](n1c(NC(=O)c3ccc(-c4cn[nH]c4)s3)nc3ccccc31)C2

>  <IC50 / nM>
1.43

$$$$

---

Recorded below: pIC50, system TXK (Homo sapiens (Human), UniProt P42681).
pIC50: −log10 of the molar value.
observable: pIC50

>  <molecule>
C=CC(=O)N1CC[C@]2(C1)C[C@H](n1c(NC(=O)c3ccc(-c4cnco4)s3)nc3cc(N(C)C(=O)C4CCCCC4)ccc31)C2

>  <observable>
pIC50

>  <measured>
9.40

$$$$
>  <molecule>
C=CC(=O)N1CC[C@]2(C1)C[C@H](n1c(NC(=O)c3ccc(-n4cccn4)s3)nc3ccccc31)C2

>  <observable>
pIC50

>  <measured>
8.50

$$$$
>  <molecule>
C=CC(=O)N1CC[C@]2(C1)C[C@H](n1c(NC(=O)c3ccc(-c4cnn(C)c4)s3)nc3ccccc31)C2

>  <observable>
pIC50

>  <measured>
8.88

$$$$
>  <molecule>
C=CC(=O)N1CC[C@]2(C1)C[C@H](n1c(NC(=O)c3ccc(-c4ccnc(F)c4)s3)nc3ccccc31)C2

>  <observable>
pIC50

>  <measured>
9.62

$$$$
>  <molecule>
C=CC(=O)N1CC[C@]2(C1)C[C@H](n1c(NC(=O)c3ccc(C(=O)OC)s3)nc3ccccc31)C2

>  <observable>
pIC50

>  <measured>
9.51

$$$$
>  <molecule>
C=CC(=O)N1CC[C@]2(C1)C[C@H](n1c(NC(=O)c3cnc(C)s3)nc3cc(CN[C@@H](C)C(C)(C)C)ccc31)C2

>  <observable>
pIC50

>  <measured>
9.17

$$$$
>  <molecule>
C=CC(=O)N1CC[C@]2(C1)C[C@H](n1c(NC(=O)c3ccc(NC(=O)c4cccnc4)s3)nc3ccccc31)C2

>  <observable>
pIC50

>  <measured>
7.19

$$$$

---

# collection of pIC50 values tested on BTK (Homo sapiens (Human), UniProt Q06187)
# Sequence (Q06187 whole entry): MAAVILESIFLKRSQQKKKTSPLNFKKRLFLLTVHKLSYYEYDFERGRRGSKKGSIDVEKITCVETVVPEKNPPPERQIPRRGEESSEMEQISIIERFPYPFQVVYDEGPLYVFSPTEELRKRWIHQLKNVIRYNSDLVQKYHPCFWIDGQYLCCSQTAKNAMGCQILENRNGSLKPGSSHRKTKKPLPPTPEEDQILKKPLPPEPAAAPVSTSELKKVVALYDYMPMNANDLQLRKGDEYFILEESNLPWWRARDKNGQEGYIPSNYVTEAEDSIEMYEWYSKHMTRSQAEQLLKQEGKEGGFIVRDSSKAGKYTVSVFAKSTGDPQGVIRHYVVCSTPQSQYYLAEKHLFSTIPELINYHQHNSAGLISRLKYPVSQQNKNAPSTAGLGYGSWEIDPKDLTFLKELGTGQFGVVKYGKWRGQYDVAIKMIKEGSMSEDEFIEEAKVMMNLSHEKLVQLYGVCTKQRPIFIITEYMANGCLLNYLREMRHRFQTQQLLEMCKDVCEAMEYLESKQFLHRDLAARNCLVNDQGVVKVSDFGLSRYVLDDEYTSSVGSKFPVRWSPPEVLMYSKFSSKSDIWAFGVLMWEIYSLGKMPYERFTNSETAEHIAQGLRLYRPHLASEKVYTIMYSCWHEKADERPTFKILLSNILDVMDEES
pIC50: −log10 of the molar value.
observable: pIC50

>  <molecule>
C=CC(=O)N1CC[C@]2(C1)C[C@H](n1c(NC(=O)c3ccc(-c4cnco4)s3)nc3cccc(F)c31)C2

>  <observable>
pIC50

>  <measured>
8.81

$$$$
>  <molecule>
C=CC(=O)N1CC[C@]2(C1)C[C@H](n1c(NC(=O)c3ccc(-c4ccncn4)s3)nc3ccccc31)C2

>  <observable>
pIC50

>  <measured>
8.49

$$$$
>  <molecule>
C=CC(=O)N1CC[C@]2(C1)C[C@H](n1c(NC(=O)c3ccc(C(F)F)s3)nc3cc(CN4CCOCC4)ccc31)C2

>  <observable>
pIC50

>  <measured>
8.59

$$$$
>  <molecule>
C=CC(=O)N1CC[C@]2(C1)C[C@H](n1c(NC(=O)c3ccc(-c4ccnc(N)n4)s3)nc3ccccc31)C2

>  <observable>
pIC50

>  <measured>
9.39

$$$$
>  <molecule>
C=CC(=O)N1CC[C@]2(C1)C[C@H](n1c(NC(=O)c3ccncc3)nc3cc(CN[C@@H](C)C(C)(C)C)ccc31)C2

>  <observable>
pIC50

>  <measured>
8.34

$$$$
